meta.source: PubChem BioAssay (NCI)

tested on: MOLT-4 leukemia; assay: NCI tumour cell line growth inhibition, 48 h
TGI values for the compounds below.
Number in µM, nothing else.

1. COc1c(C(=O)NCCN(CCNC(=O)c2cccc(-c3cccc(C(=O)N(C)C)c3OC)c2OC)CCNC(=O)c2cccc(-c3cccc(C(=O)N(C)C)c3OC)c2OC)cccc1-c1cccc(C(=O)N(C)C)c1OC; 72.4

Write TGI of "Cc1cc(C)c(-c2noc(-c3ccc(Cl)cc3)c2C2=NCCCN2)c(C)c1" ; system used: MOLT-4 leukemia
41.7

---

Each entry below lists one item and its recorded TGI value.
system: SW-620 colon; assay: NCI tumour cell line growth inhibition, 48 h
// units = µM; emit number, no label

1. Nc1c(Cl)ncnc1NCCCCCCCCCCCCNc1ncnc(Cl)c1N; 54

Field: next compound
Provide only the value of recorded TGI for CCCCCCCCCCCCOC1C(CNC(=O)C2OC3OC(C)(C)OC3C2NC(=O)CN2CCN(c3ccc(OC)cc3)CC2)OC2OC(C)(C)OC21 (centres undefined)
28.3
